tested on: A549; assay: Cytotoxicity against human A549 cells; assay type: functional, cell-based
pIC50: −log10 of the molar value.
Below, each entry is listed with its recorded pIC50.
test-readout: pIC50

{"test-smiles": "CO[C@H](C(=O)[C@@H](O)[C@@H](C)O)[C@@H]1Cc2cc3cc(O[C@H]4C[C@@H](O[C@@H]5C[C@@H](O)[C@H](O)[C@@H](C)O5)[C@H](O)[C@@H](C)O4)c(C)c(O)c3c(O)c2C(=O)[C@H]1O[C@H]1C[C@@H](O[C@@H]2C[C@@H](O)[C@@H](O[C@@H]3C[C@](C)(O)[C@H](O)[C@@H](C)O3)[C@@H](C)O2)[C@H](O)[C@@H](C)O1", "test-readout": "pIC50", "measured-result": 6.70}
{"test-smiles": "C[C@@H]1C(=O)O[C@H]2CCC3=CC(=O)C[C@H](C)[C@@]3(C)[C@H]21", "test-readout": "pIC50", "measured-result": "< 4.30"}
{"test-smiles": "C[C@@H]1C(=O)O[C@@H]2CCC3=C[C@@H](O)C[C@H](C)[C@@]3(C)[C@@H]12", "test-readout": "pIC50", "measured-result": "< 4.30"}
{"test-smiles": "CO[C@@H]1O[C@H]2CCC3=C[C@@H](O)C[C@H](C)[C@@]3(C)[C@H]2[C@@H]1C", "test-readout": "pIC50", "measured-result": "< 4.30"}
{"test-smiles": "CO[C@@H]1O[C@H]2CCC3=CC(=O)C[C@H](C)[C@@]3(C)[C@H]2[C@@H]1C", "test-readout": "pIC50", "measured-result": "< 4.30"}
{"test-smiles": "C=C(CC[C@@H](C)[C@H]1CC[C@H]2[C@@H]3C[C@H]4O[C@]45C[C@@H](O)CC[C@]5(COC(C)=O)[C@H]3CC[C@]12C)C(C)C", "test-readout": "pIC50", "measured-result": 5.12}
{"test-smiles": "CO[C@H]1O[C@@H]2CCC3=C[C@@H](O)C[C@H](C)[C@@]3(C)[C@H]2[C@@H]1C", "test-readout": "pIC50", "measured-result": "< 4.30"}
{"test-smiles": "C[C@H]1[C@H]2[C@@H](CCC3=C[C@@H](O)C[C@H](C)[C@]32C)O[C@@H]1O", "test-readout": "pIC50", "measured-result": "< 4.30"}
